This collection of values is drawn from ChEMBL document CHEMBL4303082.

- Test system: SARS-CoV-2
- Test: Determination of antiviral efficacy in high-content imaging assay in Vero E6 cells infected with SARS-CoV-2 (USA-WA1/2020 isolate) at MOI 0.75 after 24 hrs
- Type: functional, organism-based, Chlorocebus sabaeus
- Recorded conditions: Severe acute respiratory syndrome coronavirus 2, Vero C1008, 24 h
pEC50: −log10 of the molar value. Peptide text beside a SMILES is read from it. * marks the point of attachment. Cbz = O=C(OCc1ccccc1)*; CHN2 = [N-]=[N+]=C*
Observed property: pEC50

* CC(C)(C)NCc1ccc(Nc2ccnc3cc(Cl)ccc23)cc1O [GSK-369796] | 5.92
* C1=C(c2ccc(CN3CCCCC3)cc2)N2CCN=C2c2ccccc21 | 6.12
* COc1cccc2c(N3CCc4ccccc4C3C)nc(Nc3ccc(F)cc3C)nc12 (centres undefined) | 6.02
* C[C@@H]1CN(c2ncc(C(O)CO)cc2Cl)CCN1c1nc2c(-c3cc(F)c(F)c(F)c3)cc(C(F)(F)F)cc2[nH]1 (some centres undefined) | 6.02
* Cc1cccc(/C=N/Nc2cc(N3CCOCC3)nc(OCCc3ccccn3)n2)c1 [APILIMOD] | 7.64
* CC(C)CC(NC(=O)OCc1ccccc1)C(=O)NC(C(=O)NCC(=O)C=[N+]=[N-])C(C)C (stereo not drawn) (Cbz-Leu-Val-Gly-CHN2; configuration not given here) | 6.72
* CCC(CC)COC(=O)[C@H](C)N[P@](=O)(OC[C@H]1O[C@@](C#N)(c2ccc3c(N)ncnn23)[C@H](O)[C@@H]1O)Oc1ccccc1 | 6.21
* Fc1ccc(-c2ccc(CN3CCN(c4cccc5ccoc45)CC3)[nH]2)cc1 [ELOPIPRAZOLE] | 5.96
* COc1ccc2cc1Oc1ccc(cc1)C[C@H]1c3cc(c(OC)cc3CCN1C)Oc1c(OC)c(OC)cc3c1[C@H](C2)N(C)CC3 [FANCHININ] | 5.96
* CC(C)(O)c1ccc2c(c1)/C(=C/CCN1CC[C@](O)(c3ccc(Cl)cc3)C(C)(C)C1)c1cccnc1CO2 | 6.85
* CC[C@H](NC(=O)[C@H](CS(=O)(=O)CC1CC1)N[C@@H](c1ccc(F)cc1)C(F)(F)F)C(=O)C(=O)NC1CC1 | 6.52
* C[C@@H]1CS/C(=N\NC(=O)C(=O)[C@@H](NC(=O)C2CCCCCC2)C2CCOCC2)N1C | 6.30
* CCNC/C=C\CNCCCCNCCCCNC/C=C\CNCC | 6.60
* CN(C)CCn1c(C(=O)N2CCN(c3ccccc3Cl)CC2)c(C(c2ccc(O)cc2)c2ccc(O)cc2)c2ccccc21 | 5.92
